test system: UACC-62 melanoma; assay: NCI-60 one-dose screen, 48 h (100 = growth as untreated, 0 = no growth, -100 = all killed); details: 10 µM unless noted
Compounds without any hit were thinned out: in the full panel of roughly 83,000, 20% have a hit.
Please respond with reported growth for every item in the list.
One number for each entry, in %.

# Chemical smiles, growth [%]
records = [
    ("CCOC(=O)c1c(Nc2ccccc2)nn2c(N)c(C#N)c(-c3ccc(OC)cc3)nc12", 80.4),
    ("COc1cc(/C=C/C(=O)c2ccc(C(F)(F)F)cc2)ccc1Oc1nc(NCCO)nc(N2CCOCC2)n1", 78.7),
    ("COc1ccc(NC2=C(Cl)C(=O)C(C)=C(C)C2=O)cc1OC", 81.2),
    ("NS(=O)(=O)c1ccc(Nc2nc(SCC(=O)c3ccc(Cl)cc3)nc3ccccc23)cc1", 79.4),
]

Continue with the next molecule.
Q: Identify the reported growth for the following entry. O=C(CCCN1C(=O)/C(=C/c2ccccc2F)SC1=S)N1CCOCC1
Ans: 81.5
